Each entry below lists one item and its recorded inhibition value.
Target: Hematopoietic prostaglandin D synthase (Homo sapiens)
Sequence (O60760 whole entry): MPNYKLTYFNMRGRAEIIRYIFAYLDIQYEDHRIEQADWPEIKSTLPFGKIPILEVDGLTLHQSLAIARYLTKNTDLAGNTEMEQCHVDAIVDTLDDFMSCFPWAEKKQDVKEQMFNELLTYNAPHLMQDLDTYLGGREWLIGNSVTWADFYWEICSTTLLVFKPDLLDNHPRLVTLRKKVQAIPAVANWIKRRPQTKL
Test: Inhibition of HPGDS (unknown origin) assessed as reduction in reduction in GSTase activity relative to control
Set-up: concentration or dose not given beside the values
Conditions: concentration not given here
Answer with the number, then the unit.

Use the examples below as a reference point.
{"structure.as.smiles": "c1ccc(-c2ncc(-c3cnc(-c4ccccc4)[nH]3)cn2)cc1", "inhibition": "94.5%"}
{"structure.as.smiles": "O=C(NCc1ccccc1)c1ccc(-c2ccccc2)nc1", "inhibition": "40.4%"}

// next entry
Please tell me: inhibition of c1ccc(-c2ncc(-c3cnc(-c4cccnc4)s3)cn2)cc1 , system Hematopoietic prostaglandin D synthase (Homo sapiens)?
29.5%

* * *

Listed here: items and their measured ΔTm.
Target: UniProtKB O60760
Test: Binding affinity to HPGDS (unknown origin) assessed as change in melting temperature in presence of GSH by thermal shift assay
Hi! Could you send only the number? It should be in °C, unit omitted.

I'd like to know its ΔTm. The compound in question is CC(C)(O)c1nc(-c2cccc(-c3ncc(-c4ccc(-c5ccccc5)nc4)[nH]3)c2)no1
5.2

What do you have for CC(C)(O)c1nc(-c2cccc(CNC(=O)c3cnc(-c4ccccn4)nc3)c2)no1 ?
5.1

* * *

Listed compounds paired with reported ΔTm
Molecular target: Hematopoietic prostaglandin D synthase (Homo sapiens)
Assay: Binding affinity to HPGDS (unknown origin) assessed as change in melting temperature in presence of GSH by thermal shift assay
Numbers only; they are read as °C.

In the examples that follow, each entry is paired with its recorded ΔTm.
{"structure.as.smiles": "CC(C)(O)c1nc(-c2cccc(CNC(=O)c3cnc(-c4ccccc4)nc3)c2)no1", "assay.system": "Hematopoietic prostaglandin D synthase (Homo sapiens)", "uom": "°C", "meas.value": 4.95}
{"structure.as.smiles": "CC(C)(O)c1nc(-c2cccc(-c3ncc(-c4ccc(-c5ccccn5)nc4)[nH]3)c2)no1", "assay.system": "Hematopoietic prostaglandin D synthase (Homo sapiens)", "uom": "°C", "meas.value": 5.4}
{"structure.as.smiles": "O=C(NCc1ccccc1)c1ccc(-c2ccccc2)nc1", "assay.system": "Hematopoietic prostaglandin D synthase (Homo sapiens)", "uom": "°C", "meas.value": 3}

Record request: ΔTm value, item c1ccc(-c2ncc(-c3cnc(-c4cccnc4)[nH]3)cn2)cc1
5.7

Okay, and CC(C)(O)c1nc(-c2cccc(-c3ncc(-c4cnc(-c5ccccc5)nc4)[nH]3)c2)no1 ?
7.1

Field entry: c1ccc(-c2ncc(-c3cnc(-c4cccnc4)s3)cn2)cc1
2.2
